// provenance: patent US20240067729A1

- target-of-assay: T1, cynomolgus PD-L1, his tagged (cPD-L1-his) (cynomolgus (Macaca fascicularis), UniProt G7PSE7 19-238)
- T1 construct: also called cyPD-L1-His; Cyno PD-L1
- T1 sequence (G7PSE7 entry or part of it limits assumed, form in doubt): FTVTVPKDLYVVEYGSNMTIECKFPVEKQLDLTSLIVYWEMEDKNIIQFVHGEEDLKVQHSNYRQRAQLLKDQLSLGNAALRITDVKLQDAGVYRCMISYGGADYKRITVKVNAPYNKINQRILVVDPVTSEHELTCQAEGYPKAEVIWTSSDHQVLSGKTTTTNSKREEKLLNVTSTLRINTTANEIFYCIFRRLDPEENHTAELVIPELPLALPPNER
- assay-text: BLI (ForteBio Octet), cPD-L1-his
parameter: kon
Quick note: number first, unit second.

Qu. Consider the binder shown here: 769-hIgG1 (chimeric PAL769) (antibody, V domains shown) VH: EVQLQESGAELVKPGASVTLSCTASGFNIKDTYMHWVKQRPEQGLEWIGRIDPANDNTKYDPKFQDKATITADTSSDTAYLRLSSLTSEDTAVYYCAREGYGGSYGEGYWGQGTTLTVSS VL: SIVMTQTPKFLLVSAGDRVTITCKASQSVSNDVIWYQQKPGQSPKLLIYYASIRFTGVPDRFAGSGYGTDFTFTINTVQAEDLAVYFCQQDYNSPWTFGGGTKLEIK What is its recorded kon?
Ans. 238000 M⁻¹ s⁻¹
